- subjectOfTest: acetylcholine receptor
- testDescription: SPR, peptide at 10 uM on acetylcholine receptor
propertyLabel: Binding affinity (RU)

Please review the entries below; each comes with its answer.
binder="KEWNR [5mer-654]" propertylabel="Binding affinity (RU)" readoutnumber=27
binder="KDNDR [5mer-657]" propertylabel="Binding affinity (RU)" readoutnumber=22
binder="RMTKK [5mer-996]" propertylabel="Binding affinity (RU)" readoutnumber=32
binder="KTWEK [5mer-665]" propertylabel="Binding affinity (RU)" readoutnumber=26

[A] RKPGR [5mer-675]
[B] RNPGK [5mer-960]
(Q) Please tell me which of the two, A or B , has the higher reported Binding affinity (RU) value. Kindly give the label for the entry you pick.
(A) A
